Source listed as PubChem BioAssay (Tox21).

- TEST TARGET: Estrogen receptor (Homo sapiens)
- ASSAY COMMENT: qHTS assay to identify small molecule agonists of the estrogen receptor alpha (ER-alpha) signaling pathway (AID 743075);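 also: HEK293 GripTite cells with ER-alpha and UAS-driven beta-lactamase reporter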
- RECORDED CONDITIONS: HEK293 ER-alpha-UAS-bla, beta-lactamase FRET ratio, 18 h; series mostly up to 70.1 µM
Calls of active or inactive are those of the source. Calls follow the shape of the full dose curve.
Hello, when you answer, please use one of the following outcomes: 1 (active), -1 (inactive)

q: // param item: `C[N+]1(CCCCC[N+]2(C)CCCC2)CCCC1` ; yields the recorded call
a: -1

q: Per the assay record, what outcome was assigned to `COc1cccc2c1[C@@H]1CN(CCCCn3c(=O)[nH]c4c(sc5ncc(-c6ccccc6)nc54)c3=O)C[C@@H]1CO2` ?
a: -1

q: Write down the call the test reported for this compound. Item: `CC(=O)[C@]1(O)Cc2c(O)c3c(c(O)c2[C@@H](O[C@H]2C[C@H](N)[C@H](O)[C@H](C)O2)C1)C(=O)c1ccccc1C3=O`
a: 1

----------
- ASSAY COMMENT: A CellTox Green Cytotoxicity Assay to monitor cytotoxicity in HepG2 cells - 8 hour (AID 1224890); also: nearly all actives have a fitted effect of over 45% in size
- RECORDED CONDITIONS: CellTox Green fluorescence; series mostly up to 76.8 µM
- Excerpt: National Center for Advancing Translational Sciences [NCATS] NIH Chemical Genomics Center [NCGC] U.S. Environmental Protection Agency [EPA] National Institutes of Environmental Health Sciences [NIEHS] National Toxicology Program [NTP] Cell-based models are critical for drug discovery. […] Viable cells produce no appreciable increases in fluorescence. Therefore, the fluorescence signal produced by the binding interaction with dead cell DNA is proportional to cytotoxicity. […]
Records with an inconclusive call do not appear. Active and inactive are the calls of the source. Calls follow the shape of the dose curve; as a rule, active = well fitted activation curve with a large enough effect in the repeat runs; inconclusive = weak or mixed curves; inactive = flat fitted curve, though single readings scatter.
The categories you may choose from are yes (1) = active, no (0) = inactive

smiles_string=C1=CCCC1 class_name="no (0)"

q: // outcome(item) with item = `Cc1cc(C)c(O)c(C(C)(C)C)c1`
a: no (0)

q: What was the test verdict on `O=C(Nc1ccccc1)c1cc(Cl)ccc1O` ?
a: no (0)

q: Dear colleague, could you share the recorded outcome for `O=c1[nH]cccc1O` when you have a moment?
a: no (0)

q: Kindly provide the recorded test outcome for the following compound: `Oc1ccc(Cl)cc1C1CCCC1`
a: yes (1)

q: # outcome recorded in this test, key = `CC/C=C\C/C=C\C/C=C\CCCCCCCC(=O)OC`
a: no (0)

----------
- TEST TARGET: Voltage-gated inwardly rectifying potassium channel KCNH2 (Homo sapiens)
- ASSAY COMMENT: Human Ether-a-go-go-Related Gene (hERG) channel small molecule antagonists: fluorescence cell-based qHTS assay (AID 1671200);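 also: hERG-expressing U2OS cells given a thallium stimulus after FluxOR II dye loading; nearly all actives have a fitted effect of over 50% in size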
- RECORDED CONDITIONS: hERG-U2OS cells, FluxOR thallium flux fluorescence; series mostly up to 76.8 µM
Inconclusive results are not listed. The source made the active and inactive calls. Calls follow the shape of the dose curve; as a rule, active = well fitted inhibition curve with a large enough effect in the repeat runs; inconclusive = weak or mixed curves; inactive = flat fitted curve, though single readings scatter.
ASSAY METRIC: outcome

smiles_string=CCNc1nc(NC(C)(C)C)nc(OC)n1 test_target="Voltage-gated inwardly rectifying potassium channel KCNH2 (Homo sapiens)" reported=inactive
smiles_string=CC1=CC[C@@H](C(C)(C)O)CC1 test_target="Voltage-gated inwardly rectifying potassium channel KCNH2 (Homo sapiens)" reported=inactive
smiles_string=Nc1ccc2c(S(=O)(=O)O)cccc2c1S(=O)(=O)O test_target="Voltage-gated inwardly rectifying potassium channel KCNH2 (Homo sapiens)" reported=inactive
